# TEST: Stability test -1: odor and coloration scored by 10 panelists
# Assay type: physicochemical
# RECORDED_CONDITIONS: Test Example 1, aqueous solution, total score of 10 panelists, after 2 weeks

INPUT_SMILES	Coloration After 2 weeks
O=C1O[C@H]([C@@H](O)CO)C(O)=C1O	Δ

---

# TEST: Stability test -1: residual rate of 1% aqueous solutions at pH 3 to 9 on storage
# Assay type: physicochemical
# RECORDED_CONDITIONS: 1% aqueous solution, pH8, stored at 50°C, after 4 weeks
QUANTITY_MEASURED: Residual Rate After 4 weeks

COMPOUND	QUANTITY_MEASURED	RESULT
O=C1OC(C(O)CO)C2=C1OCCCO2 (stereo not shown) [synthesis example 2, 2,3-O-(1,3-propanediyl) ascorbic acid]	Residual Rate After 4 weeks	○
O=C1OC(C(O)CO)C2=C1OCCO2 (stereo not shown) [synthesis example 1, 2,3-O-(1,2-ethanediyl) ascorbic acid]	Residual Rate After 4 weeks	×
O=C1OC(C(O)CO)C2=C1OCC1(COC1)CO2 (stereo not shown) [synthesis example 6]	Residual Rate After 4 weeks	Δ
O=C1OC(C(O)CO)C2=C1OC(CO)CO2 (stereo not shown) [synthesis example 5]	Residual Rate After 4 weeks	Δ
